biological target: human recombinant P2X7 receptors (Homo sapiens, UniProt Q99572); construct: expressed in transfected cells; assay: Ethidium Accumulation Assay 1 (HEK293 cells, ATP-induced ethidium uptake); format: cell-based; conditions: HEK293 cells expressing human P2X7; 1 mM ATP; sometimes mean of more than one measurement; read-out: Assay 1 (antagonist pIC50 for blocking ATP responses) (converted)
Sequence (Q99572 whole entry): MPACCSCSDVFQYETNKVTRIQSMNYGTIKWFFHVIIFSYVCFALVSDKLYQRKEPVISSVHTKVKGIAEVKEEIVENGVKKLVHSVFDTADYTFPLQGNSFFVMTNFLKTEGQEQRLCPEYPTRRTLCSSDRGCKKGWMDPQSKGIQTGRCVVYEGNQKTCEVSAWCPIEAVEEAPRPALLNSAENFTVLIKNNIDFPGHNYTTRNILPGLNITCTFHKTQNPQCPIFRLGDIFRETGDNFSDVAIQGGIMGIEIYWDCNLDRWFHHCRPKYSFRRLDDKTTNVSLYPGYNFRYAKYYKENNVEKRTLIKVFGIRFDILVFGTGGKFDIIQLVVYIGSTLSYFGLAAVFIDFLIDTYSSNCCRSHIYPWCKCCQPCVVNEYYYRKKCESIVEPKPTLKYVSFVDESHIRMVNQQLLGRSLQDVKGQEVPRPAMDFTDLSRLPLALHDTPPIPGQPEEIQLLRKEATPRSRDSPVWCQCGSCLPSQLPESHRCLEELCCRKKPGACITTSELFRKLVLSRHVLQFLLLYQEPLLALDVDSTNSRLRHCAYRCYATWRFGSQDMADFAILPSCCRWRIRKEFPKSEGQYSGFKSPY

STRUCTURE AS SMILES | IC50
O=C(c1cccc(C(F)(F)F)c1Cl)N1CCn2c(nnc2-c2cscn2)C1 | < 10 nM
O=C(c1cccc(C(F)(F)F)c1F)N1CCn2c(Br)nnc2C1 | < 100 nM
O=C(c1ccc(F)cc1Cl)N1CCn2c(nnc2-c2ccccn2)C1 | < 10 nM
O=C(c1cccc(Cl)c1Cl)N1CCn2c(nnc2-c2ccc[nH]2)C1 | < 10 nM
O=C(c1cccc(C(F)(F)F)c1Cl)N1CCn2c(nnc2-c2ncccc2F)C1 | < 10 nM

====

target: human recombinant P2X7 receptors (Homo sapiens); construct: expressed in transfected cells; experiment: Ethidium Accumulation Assay 1 (HEK293 cells, ATP-induced ethidium uptake); assay type: cell-based; conditions: HEK293 cells expressing human P2X7; 1 mM ATP; sometimes mean of more than one measurement; read-out: Assay 1 (antagonist pIC50 for blocking ATP responses) (converted)
Measured IC50, listed per entry for reference.
ASSAY METRIC: IC50

COMPOUND | ASSAY METRIC | RESULT
O=C(c1ccc(F)cc1Cl)N1CCn2c(nnc2-c2ccc(F)cn2)C1 [Example 40] | IC50 | < 100 nM
O=C(c1ccc(Cl)cc1C(F)(F)F)N1CCn2c(nnc2-c2cnccn2)C1 [Example 142] | IC50 | < 100 nM
O=C(c1cccc(C(F)(F)F)c1Cl)N1CCn2c(Br)nnc2C1 [Example 1] | IC50 | < 10 nM
O=C(c1ccc(F)cc1Cl)N1CCn2c(nnc2-c2ccc(F)c(F)c2)C1 [Example 124] | IC50 | < 100 nM
O=C(c1cccc(C(F)(F)F)c1Cl)N1CCn2c(nnc2N2CCC2)C1 [Example 22] | IC50 | < 100 nM

====

molecular target: human recombinant P2X7 receptors (Homo sapiens, UniProt Q99572); construct: expressed in transfected cells; experiment: Ethidium Accumulation Assay 2 (HEK293 cells, ATP-induced ethidium uptake); type: cell-based; details: HEK293 cells expressing human P2X7; sometimes mean of more than one measurement; read-out: Assay 2 (antagonist pIC50 for blocking ATP responses) (converted)
Measured IC50, listed per entry for reference.
ASSAY METRIC: IC50

STRUCTURE AS SMILES | ASSAY METRIC | RESULT
Cc1ccnc(-c2nnc3n2CCN(C(=O)c2ccc(Cl)c(F)c2Cl)C3)n1 | IC50 | < 10 nM
Cc1ccc(-c2nnc3n2CCN(C(=O)c2ccc(F)c(Cl)c2Cl)C3)o1 | IC50 | < 100 nM
O=C(c1ccc(Cl)c(F)c1Cl)N1CCn2c(nnc2-c2cnsn2)C1 | IC50 | < 10 nM
O=C(c1ccc(Cl)c(F)c1Cl)N1CCn2c(nnc2-c2ncccc2F)C1 | IC50 | < 10 nM
Cc1nnc2n1CCN(C(=O)c1cccc(C(F)(F)F)c1Cl)C2 | IC50 | < 501 nM
O=C(c1cccc(C(F)(F)F)c1Cl)N1CCn2cnnc2C1 | IC50 | < 501 nM
O=C(c1ccc(Cl)cc1Cl)N1CCn2c(nnc2-c2nccs2)C1 | IC50 | < 100 nM
O=C(c1cccc(C(F)(F)F)c1Cl)N1CCn2c(nnc2-c2ncns2)C1 | IC50 | < 10 nM
O=C(c1ccc(Cl)c(F)c1Cl)N1CCn2c(nnc2-c2cnccn2)C1 | IC50 | < 10 nM
